# subject-of-test: LRP1 cluster 4-Fc chimeric proteins (UniProt Q07954)
# test-method-notes: competitive ELISA, LRP1 cluster 4-Fc captured; peptide 2,000 nM against biotin-Sequence 46 500 nM
Bridge positions count the residues as written; N and C are the ends. Square brackets hold non-standard residues; d marks the D form. Ends that are not written are not given here. * marks the point of attachment. 5FAM = O=C1OC2(c3ccc(O)cc3Oc3cc(O)ccc32)c2ccc(C(=O)*)cc21; Nle = CCCC[C@H](N)C(=O)O
quantity: inhibitory activity (%)

> print(dat)
                                     binder  result
1  Ac-K(5FAM)GTPCTYKY[Nle]LAE[Nle]C (cysteine pairing not given here) [SEQUENCE 1]    70.7
2  Ac-K(5FAM)GTP[dC]TYKY[Nle]LAE[Nle]C (bridge 5-15 via S‑C‑S (methylene)) [SEQUENCE 7]    87.6
3  Ac-K(5FAM)GTPCTYKY[Nle]LAE[Nle]C (disulfide 5-15) [SEQUENCE 2]    79.4
